ASSAYED TARGET: UniProt:P35372
Sequence (P35372 whole entry): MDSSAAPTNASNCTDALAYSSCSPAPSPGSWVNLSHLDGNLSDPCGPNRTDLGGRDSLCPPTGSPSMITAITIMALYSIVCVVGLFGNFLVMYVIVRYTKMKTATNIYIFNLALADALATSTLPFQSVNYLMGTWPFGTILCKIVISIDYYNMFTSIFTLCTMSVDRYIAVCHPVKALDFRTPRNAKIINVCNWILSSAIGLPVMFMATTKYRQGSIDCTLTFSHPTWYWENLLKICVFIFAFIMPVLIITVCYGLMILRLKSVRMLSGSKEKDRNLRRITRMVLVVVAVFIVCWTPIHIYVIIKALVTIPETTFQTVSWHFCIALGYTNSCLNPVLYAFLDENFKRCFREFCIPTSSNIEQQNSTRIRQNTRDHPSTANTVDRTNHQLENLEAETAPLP
MEASUREMENT TYPE: Ki

>>> df
                                    smiles  result
0  C[C@@H]1CNC[C@H]2Cc3ccc(COCC4CC4)nc3N21  > 1 µM

====

ASSAYED TARGET: 5-hydroxytryptamine receptor 7 (Homo sapiens)
Sequence (P34969 whole entry): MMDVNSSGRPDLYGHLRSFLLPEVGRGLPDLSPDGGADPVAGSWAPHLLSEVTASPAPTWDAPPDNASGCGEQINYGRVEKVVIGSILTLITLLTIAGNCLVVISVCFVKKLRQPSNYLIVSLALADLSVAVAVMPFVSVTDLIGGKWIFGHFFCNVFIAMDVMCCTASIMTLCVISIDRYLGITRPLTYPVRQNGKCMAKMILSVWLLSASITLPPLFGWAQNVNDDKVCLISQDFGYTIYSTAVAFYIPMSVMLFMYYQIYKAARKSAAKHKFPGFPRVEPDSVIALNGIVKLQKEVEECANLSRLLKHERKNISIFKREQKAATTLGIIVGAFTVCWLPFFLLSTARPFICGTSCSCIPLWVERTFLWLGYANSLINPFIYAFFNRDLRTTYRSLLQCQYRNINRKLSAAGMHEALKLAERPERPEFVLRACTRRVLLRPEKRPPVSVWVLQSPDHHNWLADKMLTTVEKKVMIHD
pKi: −log10 of the molar value.
MEASUREMENT TYPE: pKi

>>> print(df.to_string())
                                    smiles  measurement_type  result
0  C[C@@H]1CNC[C@H]2Cc3ccc(COCC4CC4)nc3N21               pKi  < 6.00

====

ASSAYED TARGET: 5-hydroxytryptamine receptor 2C (Homo sapiens) (UniProt P28335)
Sequence (P28335 whole entry): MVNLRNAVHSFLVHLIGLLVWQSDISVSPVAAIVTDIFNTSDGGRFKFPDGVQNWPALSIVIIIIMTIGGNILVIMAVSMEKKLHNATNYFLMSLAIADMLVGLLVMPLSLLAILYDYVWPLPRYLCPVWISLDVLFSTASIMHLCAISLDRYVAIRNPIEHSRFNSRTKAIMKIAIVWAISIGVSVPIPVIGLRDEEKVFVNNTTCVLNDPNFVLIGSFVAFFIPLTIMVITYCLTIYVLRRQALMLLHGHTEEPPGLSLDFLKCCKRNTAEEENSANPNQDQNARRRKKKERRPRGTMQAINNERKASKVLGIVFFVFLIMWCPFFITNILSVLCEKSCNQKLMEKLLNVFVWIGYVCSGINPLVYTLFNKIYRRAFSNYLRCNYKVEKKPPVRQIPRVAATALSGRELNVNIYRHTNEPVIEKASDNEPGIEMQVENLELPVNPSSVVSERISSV
PROTOCOL DETAILS: Efficacy against human recombinant 5HT2C receptor expressed in CHO cells at 1 uM in relative to 10 uM 5HT by FLIPR
Format: functional, cell-based
The label true is reserved for Efficacy strictly under 80%; false covers values equal to or above it.

>>> print(df.to_string())
                                     smiles                            assayed_target  discrete_label
0  CC(=O)Nc1ccc2c(n1)N1[C@@H](CNC[C@H]1C)C2  5-hydroxytryptamine receptor 2C (Homo sapiens) (UniProt P28335)            true
1  CCO[C@@H](C)c1ccc2c(n1)N1[C@@H](CNC[C@H]1C)C2  5-hydroxytryptamine receptor 2C (Homo sapiens) (UniProt P28335)           false
2         C[C@@H]1CNC[C@H]2Cc3ccc(Br)nc3N21  5-hydroxytryptamine receptor 2C (Homo sapiens) (UniProt P28335)           false
3       COc1ccc2c(n1)N1[C@@H](CNC[C@H]1C)C2  5-hydroxytryptamine receptor 2C (Homo sapiens) (UniProt P28335)            true
4         C[C@@H]1CNC[C@H]2Cc3ccc(CO)nc3N21  5-hydroxytryptamine receptor 2C (Homo sapiens) (UniProt P28335)           false

====

ASSAYED TARGET: 5-hydroxytryptamine receptor 2B (Homo sapiens)
Sequence (P41595 whole entry): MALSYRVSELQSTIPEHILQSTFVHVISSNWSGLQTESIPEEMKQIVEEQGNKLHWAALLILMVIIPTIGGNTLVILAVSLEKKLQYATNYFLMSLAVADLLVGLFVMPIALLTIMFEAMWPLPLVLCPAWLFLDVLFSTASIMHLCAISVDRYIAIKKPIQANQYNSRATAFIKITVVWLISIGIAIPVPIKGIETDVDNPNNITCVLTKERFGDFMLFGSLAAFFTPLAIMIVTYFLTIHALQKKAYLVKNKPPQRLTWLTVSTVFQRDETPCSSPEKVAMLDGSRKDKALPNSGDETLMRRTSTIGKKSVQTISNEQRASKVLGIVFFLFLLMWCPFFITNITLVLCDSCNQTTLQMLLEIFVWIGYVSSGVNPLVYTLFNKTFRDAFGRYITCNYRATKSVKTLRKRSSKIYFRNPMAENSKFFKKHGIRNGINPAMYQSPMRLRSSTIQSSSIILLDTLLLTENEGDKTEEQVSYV
PROTOCOL DETAILS: Displacement of [3H]5HT from human recombinant 5HT2B receptor expressed in CHO cells
MEASUREMENT TYPE: log10 of Ki (log10 of the value in nM)

                                    smiles  numeric_result
0     COCc1ccc2c(n1)N1[C@@H](CNC[C@H]1C)C2            2.58
1  C[C@@H]1CNC[C@H]2Cc3ccc(C(F)(F)F)nc3N21            1.83
2        C[C@@H]1CNC[C@H]2Cc3ccc(CO)nc3N21            3.06
3      COc1ccc2c(n1)N1[C@@H](CNC[C@H]1C)C2            2.64
4       Cc1ccc2c(n1)N1[C@@H](CNC[C@H]1C)C2            1.89
5  C[C@@H]1CNC[C@H]2Cc3ccc(COCC4CC4)nc3N21            2.24
